- TESTED_TARGET: Serine/threonine-protein kinase pim-1 (Homo sapiens) (UniProt P11309)
- Sequence (P11309 whole entry, looked up): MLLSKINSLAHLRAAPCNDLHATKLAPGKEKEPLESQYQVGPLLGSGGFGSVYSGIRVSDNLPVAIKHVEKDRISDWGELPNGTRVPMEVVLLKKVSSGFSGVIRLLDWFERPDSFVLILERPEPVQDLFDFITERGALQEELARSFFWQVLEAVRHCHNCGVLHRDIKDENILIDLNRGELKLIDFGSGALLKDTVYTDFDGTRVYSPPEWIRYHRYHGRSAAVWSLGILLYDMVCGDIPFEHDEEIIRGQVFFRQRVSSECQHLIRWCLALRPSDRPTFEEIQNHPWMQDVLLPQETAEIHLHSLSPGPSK
- ASSAY_COMMENT: PIM1 kinase ligand binding by thermal shift, biophysical, human, melting temperature shift (AID 393)
- CONDITION_CONTEXT: Thermal shift assay, hits give high values; at 10 µM, protein 2 µM, buffer 10 mM PIPES, pH 6.5, NaCl 150 mM unless noted
The source made the active and inactive calls. How the calls were made is not given here.
Tm shift values for the molecules below.

For orientation, consider the following solved cases.
Prompt: Data request, read-out Tm shift, for Cc1cc(Br)c2c(c1)=C(c1[nH]c(=S)[nH]c1O)C(=O)N=2
Completion: 4.68 Celsius (active)

Prompt: Data request, read-out Tm shift, for CC(=O)Nc1cccc(-c2cnc3ccc(N[C@H](CO)C(C)C)nn23)c1
Completion: 4.84 Celsius (active)

Prompt: Data request, read-out Tm shift, for CC(C)[C@@H](CO)Nc1ccc2ncc(-c3cccc(C(F)(F)F)c3)n2n1
Completion: 8.83 Celsius (active)

Prompt: Data request, read-out Tm shift, for CCC(CO)Nc1ccc2ncc(-c3cccc(C(C)=O)c3)n2n1 (stereo not drawn)
Completion: 6.85 Celsius (active)

Prompt: Data request, read-out Tm shift, for COc1cccc(-c2cnn3ccc(Nc4cccc(Cl)c4)nc23)c1
Completion: 6.16 Celsius (active)

Prompt: Data request, read-out Tm shift, for Nc1ccc(-c2cnc3ccc(NC4CCOCC4)nn23)cc1
Completion: 4.71 Celsius (active)

Prompt: Data request, read-out Tm shift, for CCC(CO)Nc1ccc2ncc(-c3ccc(O)cc3)n2n1 (stereo not drawn)
Completion: 6.96 Celsius (active)

Prompt: Data request, read-out Tm shift, for Oc1cccc(-c2cnc3ccc(NC4CCOCC4)nn23)c1
Completion: 3.66 Celsius (active)

***
Prompt: Data request, read-out Tm shift, for O=c1[nH]cnc2c1oc1ccc(Cl)cc12
Completion: 3.41 Celsius (active)

Prompt: Data request, read-out Tm shift, for O=c1[nH]cnc2c1sc1nc3ccccc3cc12
Completion: 3.3 Celsius (active)

Prompt: Data request, read-out Tm shift, for COCCNc1ccc2ncc(-c3cccc(C(N)=O)c3)n2n1
Completion: 3.13 Celsius (active)

Prompt: Data request, read-out Tm shift, for Clc1ccc(-c2cnc3ccc(NC4CCOCC4)nn23)cc1
Completion: 7.28 Celsius (active)

Prompt: Data request, read-out Tm shift, for Cc1ccc2c(c1)=C(c1[nH]c(=S)[nH]c1O)C(=O)N=2
Completion: 6.4 Celsius (active)
